Experimental target: T1, ActRIIB-Fc homodimer (human, UniProt Q13705 19-137)
T1 construct: extracellular domain; also called unmodified ActRIIB-Fc homodimer; ActRIIB-Fc:ActRIIB-Fc homodimer
T1 sequence (looked up): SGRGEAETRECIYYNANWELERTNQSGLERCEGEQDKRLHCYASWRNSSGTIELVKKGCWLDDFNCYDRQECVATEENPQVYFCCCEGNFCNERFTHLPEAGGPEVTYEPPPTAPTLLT
Assay overview: SPR (Biacore), anti-Fc capture, ligand in flow
Property: kon
Remember to put the unit after the number in your answer.

activin A (ligand, UniProt P08476 311-426, looked up) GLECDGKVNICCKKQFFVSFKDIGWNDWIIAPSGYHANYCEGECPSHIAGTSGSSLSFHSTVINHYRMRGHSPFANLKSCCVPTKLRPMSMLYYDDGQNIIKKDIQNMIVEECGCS yielded kon of 1.2e+07 M⁻¹ s⁻¹

Form field kon, entry activin B (ligand, UniProt P09529 293-407, looked up) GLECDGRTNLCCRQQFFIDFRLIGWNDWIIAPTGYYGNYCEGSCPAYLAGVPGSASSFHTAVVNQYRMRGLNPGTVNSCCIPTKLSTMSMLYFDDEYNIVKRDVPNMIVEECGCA : 5.1e+06 M⁻¹ s⁻¹
